Data provenance: patent US8012980B2

# TESTED SYSTEM: human active recombinant p38 (p38α) (Homo sapiens)
# Construct: 6His
# Sequence (Q16539 whole entry): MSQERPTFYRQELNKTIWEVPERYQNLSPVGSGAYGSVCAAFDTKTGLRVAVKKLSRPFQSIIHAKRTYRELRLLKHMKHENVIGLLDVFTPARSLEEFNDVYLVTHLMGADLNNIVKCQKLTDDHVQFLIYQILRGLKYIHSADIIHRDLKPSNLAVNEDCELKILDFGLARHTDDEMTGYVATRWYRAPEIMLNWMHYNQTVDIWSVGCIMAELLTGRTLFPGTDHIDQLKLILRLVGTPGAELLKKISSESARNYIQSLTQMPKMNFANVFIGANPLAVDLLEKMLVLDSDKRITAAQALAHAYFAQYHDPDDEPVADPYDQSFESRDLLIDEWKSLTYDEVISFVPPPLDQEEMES
# EXPERIMENT SUMMARY: p38 Alpha Enzyme Assay (AlphaScreen, biotinylated-ATF2 substrate)
# Format: biochemical
# PROTOCOL CONDITIONS: means of replicate determinations; pre-incubated for 4 hours at 37° C.; SD of assay between 0.2 and 0.3 log units; read-out: p38α inhibition Mean pIC50 (converted)
REPORTED PROPERTY: IC50 (pM)

Cc1c(F)cc(C(=O)NC2CC2)cc1-c1ccc2c(=O)n(CC3(CO)CC3)cc(SC3CCNCC3)c2c1 :: 100
Cc1c(F)cc(C(=O)NC2CC2)cc1-c1ccc2c(=O)n(CC3(CO)CCC3)cc(CN3CCNCC3)c2c1 :: 316
Cc1c(F)cc(C(=O)NC2CC2)cc1-c1ccc2c(=O)n(CC(C)(C)CO)cc(CN3CCC(C)(N)CC3)c2c1 :: 794
Cc1c(F)cc(C(=O)NC2CC2)cc1-c1ccc2c(=O)n(CC(C)(C)CO)cc(C(C)N3CCC[C@@H](N)C3)c2c1 (stereo partly shown) :: 794
Cc1c(F)cc(C(=O)NC2CC2)cc1-c1ccc2c(=O)n(CC(C)(C)CO)cc(C(C)N3CCC(C)(N)CC3)c2c1 (stereo not shown) :: 631

1: COCCCn1cc(CN2CCN[C@@H](CO)C2)c2cc(-c3cc(C(=O)NC4CC4)cc(F)c3C)ccc2c1=O
2: Cc1c(F)cc(C(=O)NC2CC2)cc1-c1ccc2c(=O)n(CCO)cc(CN3CCN[C@@H](C)C3)c2c1
Just curious, which one has the larger IC50 reading, 1 or 2 ? Answer with the label corresponding to your selection.
2
(2: 1000 pM, 1: 501 pM)
